Biological target: T1, EsCas13d, nuclease-dead (Eubacterium siraeum, UniProt B0MS50, R295A;H300A;R849A;H854A)
T1 sequence: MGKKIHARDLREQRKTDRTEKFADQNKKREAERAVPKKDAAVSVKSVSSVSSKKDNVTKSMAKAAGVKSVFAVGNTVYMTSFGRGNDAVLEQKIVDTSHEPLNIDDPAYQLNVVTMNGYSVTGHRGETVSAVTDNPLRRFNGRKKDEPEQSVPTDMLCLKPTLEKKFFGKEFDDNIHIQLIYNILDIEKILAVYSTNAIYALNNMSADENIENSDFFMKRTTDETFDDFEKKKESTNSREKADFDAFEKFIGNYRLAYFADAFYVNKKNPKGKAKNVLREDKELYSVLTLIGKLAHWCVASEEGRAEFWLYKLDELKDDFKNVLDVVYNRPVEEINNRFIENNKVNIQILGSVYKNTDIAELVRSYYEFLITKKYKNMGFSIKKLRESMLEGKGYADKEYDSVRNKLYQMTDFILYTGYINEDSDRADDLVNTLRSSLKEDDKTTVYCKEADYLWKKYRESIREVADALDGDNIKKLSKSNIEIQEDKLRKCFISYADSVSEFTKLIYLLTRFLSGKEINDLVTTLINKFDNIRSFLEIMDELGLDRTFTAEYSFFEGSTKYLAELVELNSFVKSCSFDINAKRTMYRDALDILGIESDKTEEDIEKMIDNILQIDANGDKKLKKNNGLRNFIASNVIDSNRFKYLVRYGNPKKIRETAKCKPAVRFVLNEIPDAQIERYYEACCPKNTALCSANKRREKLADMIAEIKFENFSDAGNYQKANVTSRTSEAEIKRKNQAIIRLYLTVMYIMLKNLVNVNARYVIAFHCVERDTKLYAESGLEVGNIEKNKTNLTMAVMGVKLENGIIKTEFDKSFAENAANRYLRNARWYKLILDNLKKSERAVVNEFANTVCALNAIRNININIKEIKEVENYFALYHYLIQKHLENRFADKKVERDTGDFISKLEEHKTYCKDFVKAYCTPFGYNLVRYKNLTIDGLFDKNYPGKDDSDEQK
Assay: crRNA (strand 1, pre-loaded); Mg2+; 40 mM Tris-HCl pH 7.5, 150 mM NaCl, 6 mM MgCl2, 1 mM DTT, 0.1% Tween-20, 0.2 mg/ml BSA; 25 C; 10 min per concentration, then washed
Conditions: tags: His6-TwinStrep-SUMO cleaved; N-terminal SNAP kept (SNAP-Surface 488); label: 3' end held by stalled T7 RNA polymerase
measurement-type: Kd
Output should be the measured figure followed by the unit it is expressed in.

Worked cases, Kd given:
target 1 G5C,C22A (mixed) RNA 1: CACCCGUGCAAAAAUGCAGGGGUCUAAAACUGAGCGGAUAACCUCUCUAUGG RNA 2: GGGAAUGGAUCCACAUCUACGAAUUCGUAACAUAGAGAGGUUAUCCCCUCACCGAGAUCGGAAGAGCACACGU; 17.3 nM
target 3 insU 3' of 4,insA 3' of 4 (mixed) RNA 1: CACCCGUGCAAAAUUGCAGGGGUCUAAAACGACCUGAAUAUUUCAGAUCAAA RNA 2: GGGAAUGGAUCCACAUCUACGAAUUCGUUUUUGAUCUGAAAUAUUCAGUAGUCUGCAGAUCGGAAGAGCACACGU; 22.9 nM
target 1 C2U,U3C (mixed) RNA 1: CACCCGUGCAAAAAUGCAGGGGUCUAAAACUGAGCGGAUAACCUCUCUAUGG RNA 2: GGGAAUGGAUCCACAUCUACGAAUUCGUACCAUAGAGAGGUUAUCCGCCUACCGAGAUCGGAAGAGCACACGU; 16.6 nM

Lab note: each binder below needs its Kd filled in.
1. target 1 G15C,A16G (mixed) RNA 1: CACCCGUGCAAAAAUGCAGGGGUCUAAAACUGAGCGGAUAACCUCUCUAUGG RNA 2: GGGAAUGGAUCCACAUCUACGAAUUCGUACCAUAGGCAGGUUAUCCGCUCACCGAGAUCGGAAGAGCACACGU
2. target 1 MT 5'PFS CCG 3'PFS ACA (mixed) RNA 1: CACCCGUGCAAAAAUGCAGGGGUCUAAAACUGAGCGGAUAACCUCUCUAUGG RNA 2: GGGAAUGGAUCCACAUCUACGAAUUCCCGCCAUAGAGAGGUUAUCCGCUCAACAAGAUCGGAAGAGCACACGU
3. target 1 insA 3' of 17,insA 3' of 17 (mixed) RNA 1: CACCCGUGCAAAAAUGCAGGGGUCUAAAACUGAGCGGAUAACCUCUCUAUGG RNA 2: GGGAAUGGAUCCACAUCUACGAAUUCGUACCAUAGAAAGAGGUUAUCCGCUCACCGAGAUCGGAAGAGCACACGU

1: 71 nM; 2: 38.5 nM; 3: 10.8 nM
